- PROCEDURE DETAILS: in vitro
- TEST PARAMETERS: BALB/c, mouse, pooled mouse plasma
PROPERTY MEASURED: half-life at 1 μM

Query: Param item = CCN(CC)CCOC(=O)c1ccc(N)cc1 [procaine] ; retrieve measured half-life at 1 μM.
Response: < 5 min

// data source = patent US20250339425A1
